# test target: UniProt Q9Y297
# Sequence (Q9Y297 whole entry): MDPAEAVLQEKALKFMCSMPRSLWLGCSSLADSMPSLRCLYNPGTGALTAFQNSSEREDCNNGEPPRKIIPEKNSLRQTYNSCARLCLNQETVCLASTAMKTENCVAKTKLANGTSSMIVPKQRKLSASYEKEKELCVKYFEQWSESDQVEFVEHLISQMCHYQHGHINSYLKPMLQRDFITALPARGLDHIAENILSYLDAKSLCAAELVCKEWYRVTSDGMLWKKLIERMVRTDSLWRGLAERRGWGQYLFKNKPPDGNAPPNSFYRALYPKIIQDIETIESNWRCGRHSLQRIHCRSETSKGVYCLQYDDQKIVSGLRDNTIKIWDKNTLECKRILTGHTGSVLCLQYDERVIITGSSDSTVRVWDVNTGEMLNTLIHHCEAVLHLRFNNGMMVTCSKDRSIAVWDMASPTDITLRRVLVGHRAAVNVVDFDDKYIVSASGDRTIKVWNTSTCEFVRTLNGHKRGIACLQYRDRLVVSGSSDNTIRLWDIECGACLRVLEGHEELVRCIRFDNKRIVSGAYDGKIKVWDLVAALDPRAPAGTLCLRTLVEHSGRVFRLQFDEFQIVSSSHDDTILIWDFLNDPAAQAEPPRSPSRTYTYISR
# Sequence (P63208 whole entry partner): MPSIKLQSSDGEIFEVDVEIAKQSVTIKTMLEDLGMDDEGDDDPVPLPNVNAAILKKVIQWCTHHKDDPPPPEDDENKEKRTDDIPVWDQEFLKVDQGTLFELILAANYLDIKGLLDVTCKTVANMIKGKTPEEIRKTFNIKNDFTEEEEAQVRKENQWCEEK
# Sequence (Q13616 whole entry partner): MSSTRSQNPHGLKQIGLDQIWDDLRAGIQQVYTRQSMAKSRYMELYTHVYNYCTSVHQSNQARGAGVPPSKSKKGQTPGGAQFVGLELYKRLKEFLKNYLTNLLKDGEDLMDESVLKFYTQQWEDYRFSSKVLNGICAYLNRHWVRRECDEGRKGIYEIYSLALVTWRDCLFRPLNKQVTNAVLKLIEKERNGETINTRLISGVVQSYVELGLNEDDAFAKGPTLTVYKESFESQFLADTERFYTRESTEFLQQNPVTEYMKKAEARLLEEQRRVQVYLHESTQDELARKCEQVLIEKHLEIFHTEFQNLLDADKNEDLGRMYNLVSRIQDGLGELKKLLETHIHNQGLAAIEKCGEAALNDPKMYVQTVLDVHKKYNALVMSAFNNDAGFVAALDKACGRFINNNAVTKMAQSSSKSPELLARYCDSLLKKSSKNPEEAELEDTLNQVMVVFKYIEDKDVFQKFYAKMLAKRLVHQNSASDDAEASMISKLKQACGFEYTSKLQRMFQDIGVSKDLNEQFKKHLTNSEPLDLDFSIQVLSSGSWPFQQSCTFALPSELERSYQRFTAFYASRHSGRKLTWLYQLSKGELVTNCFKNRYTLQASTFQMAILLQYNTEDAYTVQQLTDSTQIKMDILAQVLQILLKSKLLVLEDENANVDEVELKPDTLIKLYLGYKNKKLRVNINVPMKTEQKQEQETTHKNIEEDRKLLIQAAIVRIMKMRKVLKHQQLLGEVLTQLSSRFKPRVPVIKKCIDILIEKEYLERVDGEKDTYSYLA
# Sequence (P62877 whole entry partner): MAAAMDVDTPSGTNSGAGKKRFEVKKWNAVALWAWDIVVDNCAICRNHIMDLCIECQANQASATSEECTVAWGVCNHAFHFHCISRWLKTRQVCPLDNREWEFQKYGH
pIC50: −log10 of the molar value.

[
  {
    "compound": "COC(=O)c1ccc(-c2ccc(/C=C3\\C(=O)N(c4cccc(C(=O)O)c4)N=C3C(F)(F)F)o2)cc1",
    "test target": "UniProt Q9Y297",
    "pIC50": 5.05
  },
  {
    "compound": "O=C(O)c1ccc(-c2ccc(/C=C3\\C(=O)N(c4ccc(C(=O)O)cc4)N=C3C(F)(F)F)o2)cc1",
    "test target": "UniProt Q9Y297",
    "pIC50": 5.15
  },
  {
    "compound": "CC1=NN(c2ccc(C(=O)O)cc2)C(=O)/C1=C\\c1ccc(-c2cc(C)c(C)cc2[N+](=O)[O-])o1",
    "test target": "UniProt Q9Y297",
    "pIC50": 4.52
  },
  {
    "compound": "Cc1cc(O)c(C(=O)/C=C/c2cccc(O)c2)c(=O)o1",
    "test target": "UniProt Q9Y297",
    "pIC50": 4.52
  },
  {
    "compound": "CC1=NN(c2ccc(C(=O)O)cc2)C(=O)/C1=C\\c1ccc(-c2ccc3c(c2)C(=O)N(C(C)C)C3=O)o1",
    "test target": "UniProt Q9Y297",
    "pIC50": 4.89
  },
  {
    "compound": "O=C(O)c1ccc(N2N=C(Cc3ccccc3)/C(=C/c3ccc(-c4ccccc4F)o3)C2=O)cc1 [GS143, reference compound]",
    "test target": "UniProt Q9Y297",
    "pIC50": 4.60
  }
]
